The origin of these recorded values is patent US6683077B2.

Tested on: HCMV engineered virus RC256
PROCEDURE TEXT: microbe, parasite or virus in culture
Type: cell-based, human cytomegalovirus
CONDITION: Human betaherpesvirus 5, Fibroblast, read-out: Antiviral Activity RC256, first value (EC50)
PROPERTY LABEL: pEC50
Scale: negative log10 of molar concentration, which is what pEC50 denotes.

1) COc1ccc(C[C@H](Nc2nc3ccc(NC(=O)c4ccccn4)c(C)c3c(=O)o2)C(=O)N(C)Cc2ccccc2)cc1 [Example 11p]
5.07
2) COc1ccc(C[C@H](Nc2nc3ccc(CNC(=O)C(C)(C)C)c(C)c3c(=O)o2)C(=O)N(C)Cc2ccccc2)cc1
4.19
3) COC(=O)[C@H](Cc1ccccc1)Nc1nc2ccc(NS(=O)(=O)c3ccccc3)c(C)c2c(=O)o1
4.22
4) CCN(CC)C(=O)[C@H](Cc1ccccc1)Nc1nc2ccc(NC(=O)OC(C)(C)C)c(C)c2c(=O)o1
4.59

Lab note: next compound to report on.
Look at this compound and give its reported pEC50. Cc1c(NC(=O)OC(C)(C)C)ccc2nc(N[C@H](C)c3ccccc3)oc(=O)c12
5.00

====

Test system UniProt:P16753, IC50 listed for each of the compounds.
Sequence (P16753 1-256): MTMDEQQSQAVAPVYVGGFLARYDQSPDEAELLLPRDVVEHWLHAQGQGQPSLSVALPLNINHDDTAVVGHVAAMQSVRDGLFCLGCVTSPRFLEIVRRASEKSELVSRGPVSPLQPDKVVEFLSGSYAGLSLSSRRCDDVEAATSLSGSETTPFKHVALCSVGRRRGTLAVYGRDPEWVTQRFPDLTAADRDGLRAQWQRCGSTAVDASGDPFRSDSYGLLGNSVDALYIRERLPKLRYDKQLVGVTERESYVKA
Give just the number in nM; leave the unit off.

Worked cases, IC50 given:
1) COc1ccc(C[C@H](Nc2nc3ccc(NC(=O)Oc4ccccc4)c(C)c3c(=O)o2)C(=O)N(C)Cc2ccccc2)cc1 [Example 11q]
600
2) Cc1c(CNC(=O)Oc2ccccc2)ccc2nc(N[C@@H](Cc3ccccc3)C(=O)N(C)Cc3ccccc3)oc(=O)c12
600
3) COc1ccc(C[C@H](Nc2nc3ccc(CNC(=O)Oc4ccccc4)c(C)c3c(=O)o2)C(=O)N(C)Cc2ccccc2)cc1
400

Lab note: next compound to report on.
Provide the documented IC50 with UniProt:P16753 as the system for CCN(Cc1ccccc1)C(=O)[C@H](Cc1ccc(OC)cc1)Nc1nc2ccc(CNC(=O)Oc3ccccc3)c(C)c2c(=O)o1
1000

====

Test system: HCMV engineered virus RC256
PROCEDURE TEXT: microbe, parasite or virus in culture
Type: cell-based, human cytomegalovirus
CONDITION: Human betaherpesvirus 5, Fibroblast, read-out: Antiviral Activity RC256, first value (EC50)
PROPERTY LABEL: EC50 (µM)
Give just the number in µM; leave the unit off.

1. Cc1cccc2nc(N[C@H](C(=O)OC(C)(C)C)c3ccccc3)oc(=O)c12
10
2. CCN(Cc1ccccc1)C(=O)[C@H](Cc1ccccc1)Nc1nc2ccc(CNC(=O)OC(C)(C)C)c(C)c2c(=O)o1
13
3. Cc1c(CNC(=O)CCc2ccccc2)ccc2nc(N[C@@H](Cc3ccccc3)C(=O)N(C)Cc3ccccc3)oc(=O)c12
13
4. Cc1c(CNC(=O)OCCN(C)C)ccc2nc(N[C@@H](Cc3ccccc3)C(=O)N(C)Cc3ccccc3)oc(=O)c12 [Example 18g]
13
5. CCOC(=O)NCc1ccc2nc(N[C@@H](Cc3ccccc3)C(=O)N(C)Cc3ccccc3)oc(=O)c2c1C
11

Lab note: next compound to report on.
Provide the documented EC50 with HCMV engineered virus RC256 as the system for COc1ccc(C[C@H](Nc2nc3ccc(NS(=O)(=O)c4ccccc4)c(C)c3c(=O)o2)C(=O)N(C)Cc2ccccc2)cc1 [Example 13c]
10
